System: α1 norepinephrine receptor
Experiment: α1 norepinephrine receptor binding assay (3H-prazosin, rat cortex membrane)
Details: summary of in vitro assay
property.name: affinity with α1 (in words)

Worked cases, affinity with α1 (in words) given:
molecule	reported
O=C1CCc2cc(CCCCN3CCC(c4noc5cc(F)ccc45)CC3)cc3c2N1CC3	low affinities
O=C(CCN1CCC(c2noc3cc(F)ccc23)CC1)c1cc2c3c(c1)CCN3C(=O)CC2	low affinities
O=C1CCc2cc(C(O)CCN3CCC(c4noc5cc(F)ccc45)CC3)cc3c2N1CC3 (stereo not shown)	low affinities
O=C1CCc2cc(C(O)CCCN3CCC(c4noc5cc(F)ccc45)CC3)cc3c2N1CCC3 (stereo not shown)	low affinities
O=C1CCc2cc(C(O)CCCN3CCC(c4noc5cc(F)ccc45)CC3)cc3c2N1CC3 (stereo not shown)	low affinities
O=C(CCCN1CCC(c2noc3cc(F)ccc23)CC1)c1cc2c3c(c1)CCC(=O)N3CCC2	low affinities

Exercise: # return recorded affinity with α1 (in words) for entry `O=C1CCc2cc(CCCN3CCC(c4noc5cc(F)ccc45)CC3)cc3c2N1CC3`
Solution: low affinities

* * *

Below: a set of entries, each annotated with reported inhibition at 10 µM.
Biological target: D3 receptor (Homo sapiens, UniProt P35462)
Construct: expressed in transfected cells; host or cells: HEK-293
Sequence (P35462 whole entry): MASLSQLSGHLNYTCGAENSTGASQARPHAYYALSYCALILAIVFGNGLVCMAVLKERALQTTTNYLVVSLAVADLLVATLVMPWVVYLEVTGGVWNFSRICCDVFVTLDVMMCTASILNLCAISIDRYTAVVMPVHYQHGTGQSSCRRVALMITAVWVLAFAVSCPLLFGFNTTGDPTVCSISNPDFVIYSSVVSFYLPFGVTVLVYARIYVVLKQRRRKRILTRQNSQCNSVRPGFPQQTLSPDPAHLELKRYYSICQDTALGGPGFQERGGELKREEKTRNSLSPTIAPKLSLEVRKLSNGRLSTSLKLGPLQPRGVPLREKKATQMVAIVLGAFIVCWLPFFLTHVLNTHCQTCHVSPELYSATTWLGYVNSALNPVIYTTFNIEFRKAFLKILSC
Experiment: D3 receptor assay ([3H]-Spiperone, HEK-293 cells)
Type: binding
Settings: test compound final concentration 10 μmol/L; [3H]-Spiperone; HEK-293 cells; read-out: D3 Inhibition rate (%)
Numbers only here, please. The scale is %.

Worked cases, inhibition at 10 µM given:
molecule	inhibition at 10 µM [%]
O=C(CN1CCC(c2noc3cc(F)ccc23)CC1)c1cc2c3c(c1)CCC(=O)N3CCC2 [Compound 1]	60.9
O=C1CCc2cc(C(O)CCCN3CCC(c4noc5cc(F)ccc45)CC3)cc3c2N1CC3 (stereo not drawn) [Compound 16]	98.3
O=C1CCc2cc(C(O)CCCCN3CCC(c4noc5cc(F)ccc45)CC3)cc3c2N1CC3 (stereo not drawn) [Compound 19]	91.5
O=C1CCc2cc(CCCCN3CCC(c4noc5cc(F)ccc45)CC3)cc3c2N1CC3 [Compound 17]	96.2
O=C(CCN1CCC(c2noc3cc(F)ccc23)CC1)c1cc2c3c(c1)CCN3C(=O)CC2 [Compound 12]	94.9

Please turn your attention to the following entry.
Exercise: # return recorded inhibition at 10 µM for entry O=C1CCc2cc(CCCCCN3CCC(c4noc5cc(F)ccc45)CC3)cc3c2N1CC3 [Compound 20]
Solution: 93.2

* * *

Target: 5HT2A receptor (Rattus norvegicus, UniProt P14842)
Sequence (P14842 whole entry): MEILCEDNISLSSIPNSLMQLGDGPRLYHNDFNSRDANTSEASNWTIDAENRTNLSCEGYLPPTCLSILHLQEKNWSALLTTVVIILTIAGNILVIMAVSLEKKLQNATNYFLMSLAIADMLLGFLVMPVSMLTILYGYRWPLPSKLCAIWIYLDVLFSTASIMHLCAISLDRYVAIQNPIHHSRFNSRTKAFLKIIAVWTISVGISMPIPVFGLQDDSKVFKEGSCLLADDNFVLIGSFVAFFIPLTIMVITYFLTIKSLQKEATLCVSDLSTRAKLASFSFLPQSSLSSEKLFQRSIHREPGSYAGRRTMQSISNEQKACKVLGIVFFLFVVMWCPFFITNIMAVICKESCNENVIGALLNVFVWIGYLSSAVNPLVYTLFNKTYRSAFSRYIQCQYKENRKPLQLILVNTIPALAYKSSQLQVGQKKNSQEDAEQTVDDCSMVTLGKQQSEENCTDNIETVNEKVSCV
Test: 5HT2A receptor binding assay ([3H]-Ketanserin, rat striatum membrane)
Conditions: read-out: 5HT2A Inhibition rate (%)
Below: a set of entries, each annotated with reported inhibition at 10 µM.
Numbers only here, please. The scale is %.

Worked cases, inhibition at 10 µM given:
compound	inhibition at 10 µM (%)
O=C(CCN1CCC(c2noc3cc(F)ccc23)CC1)c1cc2c3c(c1)CCC(=O)N3CCC2	97.9
O=C(CCCN1CCC(c2noc3cc(F)ccc23)CC1)c1cc2c3c(c1)CCN3C(=O)CC2	104

Exercise: # return recorded inhibition at 10 µM for entry O=C1CCc2cc(C(O)CCCN3CCC(c4noc5cc(F)ccc45)CC3)cc3c2N1CCC3 (centres unmarked)
Solution: 99.1

Exercise: # return recorded inhibition at 10 µM for entry O=C1CCc2cc(C(O)CCN3CCC(c4noc5cc(F)ccc45)CC3)cc3c2N1CC3 (centres unmarked)
Solution: 96.9

* * *

Below: a set of entries, each annotated with reported inhibition at 10 µM.
Molecular target: 5HT2A receptor (Rattus norvegicus)
Assay: 5HT2A receptor binding assay ([3H]-Ketanserin, rat striatum membrane)
Conditions: read-out: 5HT2A Inhibition rate (%)
Numbers only here, please. The scale is %.

Worked cases, inhibition at 10 µM given:
compound	reported
O=C1CCc2cc(CCCN3CCC(c4noc5cc(F)ccc45)CC3)cc3c2N1CCC3	94
O=C1CCc2cc(CCCCN3CCC(c4noc5cc(F)ccc45)CC3)cc3c2N1CCC3	99.4
O=C1CCc2cc(CCCCN3CCC(c4noc5cc(F)ccc45)CC3)cc3c2N1CC3	99.4

Exercise: # return recorded inhibition at 10 µM for entry `O=C(CN1CCC(c2noc3cc(F)ccc23)CC1)c1cc2c3c(c1)CCN3C(=O)CC2`
Solution: 74.9

* * *

Target: 5HT2C receptor (Rattus norvegicus)
Construct: from tissue; host or cells: rat brain striatum
Sequence (P08909 33-460): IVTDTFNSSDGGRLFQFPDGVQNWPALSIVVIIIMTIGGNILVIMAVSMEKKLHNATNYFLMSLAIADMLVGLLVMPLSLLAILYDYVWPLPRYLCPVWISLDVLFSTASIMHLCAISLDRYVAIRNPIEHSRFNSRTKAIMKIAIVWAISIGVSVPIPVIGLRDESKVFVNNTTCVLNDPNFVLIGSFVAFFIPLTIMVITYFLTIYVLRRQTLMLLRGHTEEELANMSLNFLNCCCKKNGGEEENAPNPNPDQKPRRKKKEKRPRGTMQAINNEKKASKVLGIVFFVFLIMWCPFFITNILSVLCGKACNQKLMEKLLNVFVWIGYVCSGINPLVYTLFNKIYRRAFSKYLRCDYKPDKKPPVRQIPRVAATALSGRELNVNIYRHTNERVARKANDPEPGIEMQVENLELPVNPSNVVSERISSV
Experiment: 5HT2C receptor binding assay ([3H]-mesulergine, rat striatum membrane)
Details: test compound final concentration 10^−5 M; [3H]-mesulergine; rat striatum membrane; read-out: 5HT2C Inhibition rate (%)
property.name: inhibition at 10 µM (%)
Numbers only here, please. The scale is %.

compound	inhibition at 10 µM, %
O=C(CCCCN1CCC(c2noc3cc(F)ccc23)CC1)c1cc2c3c(c1)CCN3C(=O)CC2 [Compound 18]	54.3

Exercise: // output inhibition at 10 µM; input O=C1CCc2cc(CCCN3CCC(c4noc5cc(F)ccc45)CC3)cc3c2N1CC3 [Compound 14] ; system 5HT2C receptor (Rattus norvegicus)
Solution: 57

* * *

Test system: α1 norepinephrine receptor
Test: α1 norepinephrine receptor binding assay (3H-prazosin, rat cortex membrane)
Settings: test compound final concentration 10^−5 M; 3H-prazosin; rat cortex membrane
Sorting guide: entries reporting α1 Inhibition rate (%) beneath 60% go in the Condition met pile, the rest go in the Condition not met pile.

compound	group
O=C1CCc2cc(CCCCCN3CCC(c4noc5cc(F)ccc45)CC3)cc3c2N1CC3	Condition not met

Exercise: For this compound, is α1 Inhibition rate (%) lower than 60%? `O=C(CCCCN1CCC(c2noc3cc(F)ccc23)CC1)c1cc2c3c(c1)CCN3C(=O)CC2`
Solution: Condition met

Exercise: For this compound, is α1 Inhibition rate (%) lower than 60%? CC1CC(=O)N2CCCc3cc(CCCCN4CCC(c5noc6cc(F)ccc56)CC4)cc1c32 (stereo not drawn)
Solution: Condition met

Exercise: For this compound, is α1 Inhibition rate (%) lower than 60%? `O=C(CCCN1CCC(c2noc3cc(F)ccc23)CC1)c1cc2c3c(c1)CCN3C(=O)CC2`
Solution: Condition met

* * *

Below: a set of entries, each annotated with reported D2 Inhibition rate (%).
Tested on: D2 receptor
Assay: D2 receptor binding assay (3H-Spiperone, rat striatum membrane)
Conditions: test compound final concentration 10^−5 M; 3H-Spiperone; rat striatum membrane
Numbers only here, please. The scale is %.

Worked cases, D2 Inhibition rate (%) given:
compound	target.entity	property.name	reported
CC1CC(=O)N2CCCc3cc(C(=O)CCCN4CCC(c5noc6cc(F)ccc56)CC4)cc1c32 (stereo not shown)	D2 receptor	D2 Inhibition rate (%)	91.76
O=C(CN1CCC(c2noc3cc(F)ccc23)CC1)c1cc2c3c(c1)CCN3C(=O)CC2	D2 receptor	D2 Inhibition rate (%)	55.89
O=C1CCc2cc(CCCCN3CCC(c4noc5cc(F)ccc45)CC3)cc3c2N1CCC3	D2 receptor	D2 Inhibition rate (%)	94.32

Exercise: # return recorded D2 Inhibition rate (%) for entry `O=C(CCCN1CCC(c2noc3cc(F)ccc23)CC1)c1cc2c3c(c1F)CCC(=O)N3CC2`
Solution: 93.12

Exercise: # return recorded D2 Inhibition rate (%) for entry O=C1CCc2cc(C(O)CCCN3CCC(c4noc5cc(F)ccc45)CC3)cc3c2N1CC3 (stereo not shown)
Solution: 98.34

Exercise: # return recorded D2 Inhibition rate (%) for entry `O=C(CCCCN1CCC(c2noc3cc(F)ccc23)CC1)c1cc2c3c(c1)CCN3C(=O)CC2`
Solution: 88.10

Exercise: # return recorded D2 Inhibition rate (%) for entry `O=C(CCCCN1CCC(c2noc3cc(F)ccc23)CC1)c1cc2c3c(c1)CCC(=O)N3CCC2`
Solution: 90.17

Exercise: # return recorded D2 Inhibition rate (%) for entry `O=C1CCc2cc(CCCN3CCC(c4noc5cc(F)ccc45)CC3)cc3c2N1CCC3`
Solution: 94.22

Exercise: # return recorded D2 Inhibition rate (%) for entry CC1CC(=O)N2CCCc3cc(CCCCN4CCC(c5noc6cc(F)ccc56)CC4)cc1c32 (stereo not shown)
Solution: 85.88

Exercise: # return recorded D2 Inhibition rate (%) for entry `O=C1CCc2cc(CCCCCN3CCC(c4noc5cc(F)ccc45)CC3)cc3c2N1CC3`
Solution: 83.23

Exercise: # return recorded D2 Inhibition rate (%) for entry O=C1CCc2cc(C(O)CCCCN3CCC(c4noc5cc(F)ccc45)CC3)cc3c2N1CC3 (stereo not shown)
Solution: 81.45

Exercise: # return recorded D2 Inhibition rate (%) for entry `O=C(CCN1CCC(c2noc3cc(F)ccc23)CC1)c1cc2c3c(c1)CCC(=O)N3CCC2`
Solution: 94.33

Exercise: # return recorded D2 Inhibition rate (%) for entry `O=C(CCN1CCC(c2noc3cc(F)ccc23)CC1)c1cc2c3c(c1)CCN3C(=O)CC2`
Solution: 97.75

Exercise: # return recorded D2 Inhibition rate (%) for entry `O=C1CCc2cc(CCCN3CCC(c4noc5cc(F)ccc45)CC3)cc3c2N1CC3`
Solution: 94.65

Exercise: # return recorded D2 Inhibition rate (%) for entry O=C1CCc2cc(C(O)CCN3CCC(c4noc5cc(F)ccc45)CC3)cc3c2N1CC3 (stereo not shown)
Solution: 96.83

Exercise: # return recorded D2 Inhibition rate (%) for entry `O=C1CCc2cc(CCCCN3CCC(c4noc5cc(F)ccc45)CC3)cc3c2N1CC3`
Solution: 99.17
